# Tested on: corn
# assay overview: Test A postemergence
# Type: in vivo, Zea mays
# details: 125 g ai/ha, postemergence, 10 days, visual injury, 0 to 100 scale (0 no effect, 100 complete control)
Below, each entry is listed alongside its reported Plant response rating, Corn.
measured property: Plant response rating, Corn

[[record]]
molecule = "C[C@H]1CN(C(=O)c2cccc(-n3cncn3)c2)c2cccc(C(F)(F)F)c2O1 [Compound 47]"
measured_target = "corn"
numeric_readout = 30

[[record]]
molecule = "Cc1cccc2c1O[C@@H](C)CN2C(=O)c1cc(-n2cncn2)ccc1Cl [Compound 60]"
measured_target = "corn"
numeric_readout = 30

[[record]]
molecule = "C[C@H]1CN(C(=O)c2cc(-n3cncn3)ccc2C(F)(F)F)c2cccc(Cl)c2O1 [Compound 70]"
measured_target = "corn"
numeric_readout = 10

[[record]]
molecule = "Cc1cccc2c1O[C@@H](C)CN2C(=O)c1cccc(-n2cncn2)c1F [Compound 53]"
measured_target = "corn"
numeric_readout = 0

[[record]]
molecule = "Cc1ncn(-c2cccc(C(=O)N3C[C@H](C)Oc4c(C)cccc43)c2)n1 [Compound 51]"
measured_target = "corn"
numeric_readout = 30

[[record]]
molecule = "CCCc1ncn(-c2cccc(C(=O)N3C[C@H](C)Oc4c(C)cccc43)c2)n1 [Compound 72]"
measured_target = "corn"
numeric_readout = 30

[[record]]
molecule = "CCc1ccc(-n2cncn2)cc1C(=O)N1C[C@H](C)Oc2c(Cl)cccc21 [Compound 79]"
measured_target = "corn"
numeric_readout = 40

[[record]]
molecule = "CCc1cccc2c1OC(C)CN2C(=O)c1cccc(-n2cncn2)c1 (centres unmarked) [Compound 43]"
measured_target = "corn"
numeric_readout = 10

